# System name: T1, TNFR1 (Homo sapiens, UniProt P19438)
# T1 chain: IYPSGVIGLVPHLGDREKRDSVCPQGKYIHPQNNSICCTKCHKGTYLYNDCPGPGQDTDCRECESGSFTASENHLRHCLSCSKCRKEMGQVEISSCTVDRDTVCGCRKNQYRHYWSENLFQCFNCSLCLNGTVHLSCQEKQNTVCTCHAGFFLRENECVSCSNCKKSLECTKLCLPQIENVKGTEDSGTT
# Protocol text: yeast display SC50
Measured attribute: apparent Kd (screen) (nM)

Example entries and their recorded answers appear below.
S80E (designed binder) SMEEEVEKAAKEYEKKKKEAIEKHLEKLKAKDKEAAERFLKELEEAAKEYAKDEAKTMSEEEAKRRAKKYKEKVLLSELEEEEQKEIKEAEEKLVRTILKYVEEAAK | 5.84
R96D (designed binder) SMEEEVEKAAKEYEKKKKEAIEKHLEKLKAKDKEAAERFLKELEEAAKEYAKDEAKTMSEEEAKRRAKKYKEKVLLSELSEEEQKEIKEAEEKLVDTILKYVEEAAK | 10.4

a. V102M (designed binder) SMEEEVEKAAKEYEKKKKEAIEKHLEKLKAKDKEAAERFLKELEEAAKEYAKDEAKTMSEEEAKRRAKKYKEKVLLSELSEEEQKEIKEAEEKLVRTILKYMEEAAK
b. L99I (designed binder) SMEEEVEKAAKEYEKKKKEAIEKHLEKLKAKDKEAAERFLKELEEAAKEYAKDEAKTMSEEEAKRRAKKYKEKVLLSELSEEEQKEIKEAEEKLVRTIIKYVEEAAK
Please state the entry with greater apparent Kd (screen) among a and b . Please indicate the selected item by its label.
b
(b: 2.05 nM, a: 0.49 nM)

The origin of these recorded values is paper PMC12416549.
